Target: human GPR52 (Homo sapiens, UniProt Q9Y2T5)
Sequence (Q9Y2T5 whole entry): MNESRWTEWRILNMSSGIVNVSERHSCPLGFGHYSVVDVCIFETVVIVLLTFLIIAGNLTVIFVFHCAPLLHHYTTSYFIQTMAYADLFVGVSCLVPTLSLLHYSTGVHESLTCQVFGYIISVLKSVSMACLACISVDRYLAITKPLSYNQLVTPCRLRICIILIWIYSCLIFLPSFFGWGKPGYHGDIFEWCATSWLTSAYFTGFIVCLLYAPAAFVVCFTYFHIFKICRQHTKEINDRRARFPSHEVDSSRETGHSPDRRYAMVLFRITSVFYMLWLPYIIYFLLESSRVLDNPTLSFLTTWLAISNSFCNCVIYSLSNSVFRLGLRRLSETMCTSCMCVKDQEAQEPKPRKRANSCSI
Assay: HTRF assay for direct cAMP measurement
Conditions: CHO-K1 cells stably expressing recombinant human GPR52, mean EC50
Description: Homogeneous Time-Resolved Fluorescence (HTRF) Assay for Direct cAMP Measurement. HTRF cAMP assays were performed using commercially available assay kits according to the manufacturer's instructions (cAMP Dynamic 2 Assay Kit; #62AM4PEJ, Cisbio Bioassays, Bedford, Mass.). […] Plates were then incubated at room temperature for one hour prior to reading. Time-resolved fluorescence measurements were collected on an EnVision® HTRF plate reader (PerkinElmer, Waltham, Mass.). […]
So basically: is EC50 under 6 nM? Then True. Not under? Then False.

Solved cases below.
Cc1cc(NC(=O)c2nccnc2N2CC(Oc3cc(F)cc(Cl)c3)C2)ncn1; False
O=C(Nc1ccnnc1)c1nccnc1N1CC(Oc2ccc(F)c(F)c2)C1; False
O=C(Nc1ccncn1)c1nccnc1N1CC(Oc2cc(F)c(F)c(F)c2)C1; False
Cc1cc(NC(=O)c2nccnc2N2CC(Oc3cc(F)cc(F)c3)C2)cnn1; False
O=C(Nc1ccncn1)c1nccnc1N1CC(Oc2ccc(F)c(F)c2)C1; False

Data request: Confirm or reject: EC50 of Cc1cc(NC(=O)c2nccnc2N2CC(Oc3cc(F)cc(C(F)(F)F)c3)C2)ncn1 lies strictly below 6 nM
Data returned: False

Data request: Confirm or reject: EC50 of O=C(Nc1ccnnc1)c1nccnc1N1CC(Oc2cc(F)c(F)c(Cl)c2)C1 lies strictly below 6 nM
Data returned: True

Data request: Confirm or reject: EC50 of CCc1cc(NC(=O)c2nccnc2N2CC(Oc3cc(F)c(F)c(F)c3)C2)cnn1 lies strictly below 6 nM
Data returned: True

Data request: Confirm or reject: EC50 of CCc1cc(NC(=O)c2nccnc2N2CC(Oc3cc(F)cc(C(F)F)c3)C2)cnn1 lies strictly below 6 nM
Data returned: False

Data request: Confirm or reject: EC50 of Cc1cc(NC(=O)c2nccnc2N2CC(Oc3ccc(F)c(Cl)c3)C2)cnn1 lies strictly below 6 nM
Data returned: True

* * *

Biological target: aldehyde oxidase (Homo sapiens, UniProt Q06278)
Construct: endogenous in cells; host or cells: cryopreserved primary human hepatocytes
Sequence (Q06278 1-1338): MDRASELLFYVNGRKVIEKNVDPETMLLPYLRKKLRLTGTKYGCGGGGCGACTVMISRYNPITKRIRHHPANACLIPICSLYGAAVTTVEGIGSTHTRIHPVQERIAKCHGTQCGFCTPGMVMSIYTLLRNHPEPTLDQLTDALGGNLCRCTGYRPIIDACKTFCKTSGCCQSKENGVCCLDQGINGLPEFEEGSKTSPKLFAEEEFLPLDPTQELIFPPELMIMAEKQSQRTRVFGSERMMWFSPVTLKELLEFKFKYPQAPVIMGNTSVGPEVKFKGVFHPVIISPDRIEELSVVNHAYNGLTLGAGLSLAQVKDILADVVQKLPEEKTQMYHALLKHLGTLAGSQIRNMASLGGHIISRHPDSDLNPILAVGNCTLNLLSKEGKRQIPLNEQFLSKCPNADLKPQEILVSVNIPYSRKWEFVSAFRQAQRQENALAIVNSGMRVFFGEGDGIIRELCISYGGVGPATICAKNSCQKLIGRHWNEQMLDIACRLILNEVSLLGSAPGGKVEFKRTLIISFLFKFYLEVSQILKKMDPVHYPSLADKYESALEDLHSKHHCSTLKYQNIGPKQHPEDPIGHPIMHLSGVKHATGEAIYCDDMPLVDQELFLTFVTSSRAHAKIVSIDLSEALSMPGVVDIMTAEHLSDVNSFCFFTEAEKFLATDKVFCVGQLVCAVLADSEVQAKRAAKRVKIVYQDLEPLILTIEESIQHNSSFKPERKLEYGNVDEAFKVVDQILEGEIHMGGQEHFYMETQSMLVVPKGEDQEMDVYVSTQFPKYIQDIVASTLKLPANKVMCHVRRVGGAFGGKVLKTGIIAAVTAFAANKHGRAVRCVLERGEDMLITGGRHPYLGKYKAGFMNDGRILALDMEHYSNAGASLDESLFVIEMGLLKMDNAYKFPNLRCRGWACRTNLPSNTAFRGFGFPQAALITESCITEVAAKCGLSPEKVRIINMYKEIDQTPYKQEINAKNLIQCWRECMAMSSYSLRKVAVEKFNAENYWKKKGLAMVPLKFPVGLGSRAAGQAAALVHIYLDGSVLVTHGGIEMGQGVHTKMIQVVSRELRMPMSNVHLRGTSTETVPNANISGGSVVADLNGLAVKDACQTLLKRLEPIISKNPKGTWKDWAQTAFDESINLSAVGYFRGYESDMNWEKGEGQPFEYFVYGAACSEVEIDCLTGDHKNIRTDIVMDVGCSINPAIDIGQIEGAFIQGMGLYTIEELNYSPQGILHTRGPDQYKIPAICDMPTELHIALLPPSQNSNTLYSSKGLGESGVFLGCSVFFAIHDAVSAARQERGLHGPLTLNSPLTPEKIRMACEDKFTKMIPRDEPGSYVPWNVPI
Experiment: Metabolite formation in pooled human liver cytosol incubations without cofactors
Type: in vitro ADME
Set-up: key: yes: Metabolite is formed in presence of human liver cytosol in the absence of cofactors as indication of aldehyde oxidase mediated metabolism; Metabolite is not detected in cytosol incubations
Settings: human liver cytosol 5 mg/ml, 10 μM test compound, 60 min, metabolite of the same line
result_type: Formation in human liver cytosol incubations [yes/no]

Recorded results for 4 compounds are shown here.
Cc1cc(NC(=O)c2nccnc2N2CC(Oc3ccc(F)c(F)c3)C2)ncn1; yes
CCc1cc(NC(=O)c2nccnc2N2CC(Oc3ccc(F)c(F)c3)C2)cnn1; yes
O=C(Nc1ccnnc1)c1nccnc1N1CC(Oc2cc(F)c(F)c(F)c2)C1; yes
Cc1cc(NC(=O)c2nccnc2N2CC(Oc3cc(F)cc(F)c3)C2)cnn1; yes

Now consider the entry below.
Data request: Tell me its Formation in human liver cytosol incubations [yes/no] on aldehyde oxidase (Homo sapiens, UniProt Q06278): Cc1cc(NC(=O)c2nccnc2N2CC(Oc3cc(F)c(F)c(Cl)c3)C2)cnn1
Data returned: yes
